target-or-system: Corticotropin-releasing factor receptor 2/Corticotropin-releasing factor-binding protein (Homo sapiens, UniProt P24387+Q13324)
Sequence (Q13324 whole entry): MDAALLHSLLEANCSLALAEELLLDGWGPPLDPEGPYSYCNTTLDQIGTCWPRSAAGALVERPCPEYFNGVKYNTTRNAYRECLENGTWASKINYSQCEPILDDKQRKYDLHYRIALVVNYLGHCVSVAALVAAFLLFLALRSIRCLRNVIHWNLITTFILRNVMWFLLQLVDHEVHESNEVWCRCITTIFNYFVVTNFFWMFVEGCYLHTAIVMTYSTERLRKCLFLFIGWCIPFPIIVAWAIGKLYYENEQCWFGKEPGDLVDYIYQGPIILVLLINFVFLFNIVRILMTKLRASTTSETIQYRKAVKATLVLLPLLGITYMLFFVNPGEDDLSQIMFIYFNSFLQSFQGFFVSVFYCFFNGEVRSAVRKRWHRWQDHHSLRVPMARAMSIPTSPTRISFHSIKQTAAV
Sequence (P24387 whole entry): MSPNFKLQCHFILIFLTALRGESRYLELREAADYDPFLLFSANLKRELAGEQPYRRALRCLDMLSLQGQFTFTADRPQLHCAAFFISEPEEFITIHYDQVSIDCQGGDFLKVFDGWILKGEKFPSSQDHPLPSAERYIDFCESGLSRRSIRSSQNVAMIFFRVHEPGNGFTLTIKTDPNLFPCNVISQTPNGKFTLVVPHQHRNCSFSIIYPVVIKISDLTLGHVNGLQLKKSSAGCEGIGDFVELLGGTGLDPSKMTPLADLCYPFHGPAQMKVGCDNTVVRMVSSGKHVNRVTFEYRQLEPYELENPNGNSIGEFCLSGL
method-notes: activators of CRF receptor 2 with binding protein – uHTS hits, confirmation (AID 602473)
Format: functional
condition-context: read-out: EC50_Mean
The source made the active and inactive calls.
observable: EC50

Some solved cases for reference:
COC(=O)c1sc(-c2ccc(C(C)(C)C)cc2)cc1NC(=O)CSCC(=O)O; 36.8 µM (active)
C=CCc1cc(/C=C2\C(=N)N3N=C(CC(=O)N4CCOCC4)SC3=NC2=O)cc(OC)c1O; 6.76 µM (active)
CC(C)N1CCc2c(sc(NC(=O)c3cc4cc([N+](=O)[O-])ccc4s3)c2C(N)=O)C1; > 53 µM (inactive)
O=C(Nc1cc(Br)ccc1O)c1cc(-c2ccc3c(c2)OCO3)on1; > 53 µM (inactive)

EC50 reading for COc1ccc(N2C(=O)c3cccc4cccc(c34)C2=O)cc1 : > 53 µM (inactive)

====

Overview of reported IC50 across a group of compounds:
target-or-system: Carboxy-terminal domain RNA polymerase II polypeptide A small phosphatase 1 (Homo sapiens)
Sequence (Q9GZU7 whole entry, the tested form may be a part): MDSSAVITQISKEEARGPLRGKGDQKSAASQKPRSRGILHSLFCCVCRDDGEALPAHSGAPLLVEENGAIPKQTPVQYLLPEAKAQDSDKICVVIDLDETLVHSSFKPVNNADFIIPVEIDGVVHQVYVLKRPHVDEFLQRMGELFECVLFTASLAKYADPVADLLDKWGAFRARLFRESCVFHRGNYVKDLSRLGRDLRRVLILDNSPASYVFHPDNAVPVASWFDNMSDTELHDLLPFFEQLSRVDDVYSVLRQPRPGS
method-notes: inhibitors of CTDSP1, concentration-response testing, biochemical assay, absorbance-based, actives from ultra-high-throughput screening (AID 540297)
Type: functional
Active and inactive are the calls of the source.

O=C(Nc1sc2c(c1C(=O)O)CCC2)c1ccccc1; 12.1 µM (active)
C/C=C/C=C/C(=O)C1=C(O)[C@]2(C)C(=O)C(C)(O)[C@H]1[C@H]([C@]1(C)OC(O)=C(C)C1=O)[C@H]2C(=O)/C=C/C=C/C (stereo partly specified); 5.92 µM (active)
Cn1cnnc1SCC(=O)Nc1sc2c(c1C(N)=O)CCC2; 2.77 µM (active)
O=c1c2cc(-c3ccccc3)sc2nc2n1N=C(c1cccs1)CS2; 6.3 µM (active)

So for COc1ccc(C(CC(=O)N2CCCC2)c2c(OC)cc(OC)c3c(-c4ccccc4)cc(=O)oc23)cc1 (stereo unspecified) , the logged IC50 turned out to be 9.82 µM (active)

For reference, reported IC50 for Cc1cc(/C=N/NC(=O)c2cccc(N(C)C)c2)c(C)n1-c1cc(C(=O)O)cc(C(=O)O)c1 stands at 2.07 µM (active)

====

Reported values of EC50 for individual entries
target-or-system: Zinc finger protein mex-5 (Caenorhabditis elegans)
Sequence (Q9XUB2 whole entry): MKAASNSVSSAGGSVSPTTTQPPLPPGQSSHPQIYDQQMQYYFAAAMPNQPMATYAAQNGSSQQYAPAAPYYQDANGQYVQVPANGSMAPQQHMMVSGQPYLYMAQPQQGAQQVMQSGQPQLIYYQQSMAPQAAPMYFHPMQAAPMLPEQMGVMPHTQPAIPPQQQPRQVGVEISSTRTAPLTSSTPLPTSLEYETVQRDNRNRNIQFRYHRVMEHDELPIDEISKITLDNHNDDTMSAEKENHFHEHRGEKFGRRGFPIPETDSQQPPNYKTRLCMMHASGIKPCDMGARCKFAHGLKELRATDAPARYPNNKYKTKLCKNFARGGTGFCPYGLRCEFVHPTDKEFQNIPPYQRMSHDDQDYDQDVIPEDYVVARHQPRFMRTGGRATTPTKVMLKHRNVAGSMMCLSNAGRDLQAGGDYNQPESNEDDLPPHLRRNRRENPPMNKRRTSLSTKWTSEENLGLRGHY
method-notes: MEX-5/TCR-2 RNA interaction inhibitors, dose response, biochemical, C. elegans, fluorescence polarization (AID 1960)
Activity calls are given as the source filed them.

O=C1NC(=O)N(CCc2ccccc2)C(=O)/C1=C/NNC(=O)c1ccncc1; > 300 µM (not active)
CCN1CCc2c(sc(NC(=O)c3ccc4ccccc4c3)c2C(N)=O)C1; > 300 µM (inconclusive)
Cc1ccc2c(c1C)NC(C(=O)O)C1CC=CC21 (stereo unspecified); 21.7 µM (active)
Cc1ccccc1-c1ccc(/C=C2/SC(N3CCOCC3)=NC2=O)o1; 69.6 µM (active)
N=c1c(S(=O)(=O)c2ccc(Cl)cc2)cc2c(=O)n3ccccc3nc2n1C1CCCCC1; 125 µM (active)
CCOc1ccccc1N1C(=O)NC(=O)/C(=C\Nc2ccc(N(CC)CC)cc2)C1=O; > 300 µM (inconclusive)

Then there is this compound:
Item CC1CC=C2C(C#N)=C(N)C(C#N)(C#N)C(c3cccs3)C2C1 (stereo unspecified) ; assay system Zinc finger protein mex-5 (Caenorhabditis elegans); EC50 reported as 14.9 µM (active)

====

method-notes: Luminescence Cell-Based Dose Response HTS to Identify Activators of Luciferase Translation or Activity in H4 […] Cells. [Related pubchem assays: 1829 (Project Summary), 1814 (Primary HTS)]
Format: functional
The source made the active and inactive calls.
Recorded EC50, one value per entry.

# annotated cases, reported EC50 shown
CCOC(=O)c1s/c(=N\C(=O)/C=C/c2cccs2)n(C)c1C; < 0.1 µM (inconclusive)
CCCOc1cccc(-c2nc3ccccc3c(=O)o2)c1; 16.3 µM (active)
COc1cc(NC(=O)c2cc3nc(C)cc(C)n3n2)c(OC)cc1Cl; 0.278 µM (active)

Turning now to a further record.
So, N#Cc1c(NC(=O)C2CC2)sc2c1CCCCC2 ? Its EC50 was 81.4 µM (active)

====

target-or-system: Replicative DNA helicase DnaB (Mycobacterium tuberculosis, UniProt P9WMR3)
method-notes: DnaB intein splicing inhibitors, dose response, biochemical, cell-free fluorescence (AID 449749)
Format: functional
Active and inactive are the calls of the source.
Items are presented alongside their recorded AC50.

Previously resolved entries follow.
CCn1c(-c2ccccc2)c(C(=O)CCl)c2ccccc21; 3.27 µM (active)
Cc1nn(-c2ccc(F)cc2)c(O)c1C(c1cccc(O)c1)c1c(C)[nH]n(-c2ccc(F)cc2)c1=O (configuration not stated); 1.06 µM (active)
COC(=O)c1ccc2c(c1O)C(=O)c1ccccc1C2=O; 51.4 µM (active)
Cc1ccc(C(=O)Oc2ccc([N+](=O)[O-])cc2)cc1S(=O)(=O)N1CCCCCC1; 3.4 µM (active)

// sample CCCOc1cccc(-c2nc3ccccc3c(=O)o2)c1 , its AC50 was 9.46 µM (active)

So for COc1ccc(C(=O)Nc2ccc(O)c3ccccc23)cc1OC , the logged AC50 turned out to be 82 µM (active)

====

// values below are reported IC50
target-or-system: High affinity choline transporter 1 (Homo sapiens, UniProt Q9GZV3)
Sequence (Q9GZV3 whole entry): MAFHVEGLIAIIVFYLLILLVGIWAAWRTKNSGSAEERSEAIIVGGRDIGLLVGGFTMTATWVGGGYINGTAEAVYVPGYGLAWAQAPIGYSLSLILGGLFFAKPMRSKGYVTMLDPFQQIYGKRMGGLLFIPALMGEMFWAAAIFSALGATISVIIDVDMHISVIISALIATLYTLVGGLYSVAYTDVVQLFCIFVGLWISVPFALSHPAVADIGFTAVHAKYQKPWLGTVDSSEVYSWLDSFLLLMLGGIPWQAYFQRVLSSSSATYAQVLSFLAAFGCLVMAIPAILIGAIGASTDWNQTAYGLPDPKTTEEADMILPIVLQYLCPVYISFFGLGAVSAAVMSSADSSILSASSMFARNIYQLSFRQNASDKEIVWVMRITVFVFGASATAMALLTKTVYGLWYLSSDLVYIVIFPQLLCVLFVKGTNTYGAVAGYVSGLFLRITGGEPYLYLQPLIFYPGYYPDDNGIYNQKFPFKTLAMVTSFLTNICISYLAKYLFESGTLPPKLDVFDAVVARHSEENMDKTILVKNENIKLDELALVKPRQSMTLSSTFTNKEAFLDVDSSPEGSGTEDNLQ
method-notes: CHT inhibitors, dose response, cell-based, 5-point CRC, membrane potential dye (AID 504840)
Assay type: functional
Active and inactive are the calls of the source.

Note to self: IC50 recorded for CCOC(=O)c1cc(NC(=O)c2ccoc2C)cc(C(=O)OCC)c1 was 14.5 µM (active)

====

target-or-system: Prothrombin (Homo sapiens, UniProt P00734)
method-notes: Thrombin 1536 HTS Dose Response Confirmation. [Related pubchem assays: 1046 (Thrombin 1536 HTS; hits were confirmed in this assay)]
Format: functional
The source made the active and inactive calls.
observable: IC50

Some molecules with recorded IC50:
COC(=O)c1nnc(NC(=O)c2ccccc2)[nH]1; 0.0545 µM (active)
Cc1nc(SCC(=O)N2CCc3ccccc3C2)c2c(C)c(C)sc2n1; > 50 µM (not active)
CCCC(=O)n1nc(-c2ccccc2)nc1SC; 0.935 µM (active)

IC50 measured on O=C1NC(=O)N(CCc2ccccc2)C(=O)/C1=C/NNC(=O)c1ccncc1 = > 50 µM (not active)

// IC50 value for COc1ccccc1NC(=O)c1sc2ncn(Cc3cccc(C)c3)c(=O)c2c1C : > 50 µM (not active)

Reported IC50 ( CCn1cc(C(=O)NCc2ccco2)c(=O)c2cc(S(=O)(=O)N3CCCC3)ccc21 ) = 1.31 µM (active)

====

Each entry below carries its recorded IC50.
target-or-system: Lytic switch protein BZLF1 (Epstein-Barr virus (strain B95-8) (HHV-4) (Human herpesvirus 4), UniProt P03206)
Sequence (P03206 whole entry): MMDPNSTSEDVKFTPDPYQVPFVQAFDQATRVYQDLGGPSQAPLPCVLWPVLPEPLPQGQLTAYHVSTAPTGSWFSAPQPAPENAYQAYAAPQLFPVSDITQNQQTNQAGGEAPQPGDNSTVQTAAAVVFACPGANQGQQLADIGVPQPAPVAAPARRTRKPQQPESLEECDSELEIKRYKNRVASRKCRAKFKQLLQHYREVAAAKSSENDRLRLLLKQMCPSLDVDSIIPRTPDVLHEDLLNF
method-notes: EBV ZTA inhibitors, dose response, counter-screen for EBNA-1 inhibitor project, biochemical, fluorescence polarization, Epstein-Barr virus, 1536-well (AID 2377);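 further: fluorescence polarization of Cy5-labelled ZRE DNA probe bound by purified Zta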
Set-up: species or system human gammaherpesvirus 4

COc1cc(-c2nc3n(n2)C(c2cccc(OC)c2OC)C2=C(O)CCCC2=N3)cc(OC)c1OC (centres undefined); > 111 µM (not active)
Cc1ccc(NC(=O)CSc2nnc(NC(=O)c3ccc(S(=O)(=O)N4CCOCC4)cc3)s2)cc1; > 111 µM (not active)
O=C(Nc1ccccc1F)c1cc2c(s1)-c1ccccc1S(=O)(=O)C2; 93.7 µM (not active)

Record summary for COc1ccc(-c2cn3c(C)c(C(=O)NCc4ccc5c(c4)OCO5)sc3n2)cc1 : reported IC50 = > 111 µM (not active)

====

EC50 values, listed per item
target-or-system: Peroxisome proliferator-activated receptor gamma/Nuclear receptor coactivator 1 (Homo sapiens, UniProt P37231)
Sequence (P37231 whole entry): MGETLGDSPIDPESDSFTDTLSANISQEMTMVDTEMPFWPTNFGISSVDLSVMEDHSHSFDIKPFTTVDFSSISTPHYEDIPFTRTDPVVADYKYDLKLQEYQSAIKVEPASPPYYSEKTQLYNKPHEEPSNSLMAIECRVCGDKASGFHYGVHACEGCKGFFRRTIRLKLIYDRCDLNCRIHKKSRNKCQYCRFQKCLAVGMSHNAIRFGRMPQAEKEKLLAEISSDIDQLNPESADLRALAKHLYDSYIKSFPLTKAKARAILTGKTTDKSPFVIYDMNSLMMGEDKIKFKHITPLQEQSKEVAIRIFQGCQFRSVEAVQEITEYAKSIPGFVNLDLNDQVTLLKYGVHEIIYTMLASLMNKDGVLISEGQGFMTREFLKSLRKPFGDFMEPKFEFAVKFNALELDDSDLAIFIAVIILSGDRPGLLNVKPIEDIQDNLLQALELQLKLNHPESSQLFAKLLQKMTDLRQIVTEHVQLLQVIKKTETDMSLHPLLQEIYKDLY
Sequence (Q15788 whole entry, further chain): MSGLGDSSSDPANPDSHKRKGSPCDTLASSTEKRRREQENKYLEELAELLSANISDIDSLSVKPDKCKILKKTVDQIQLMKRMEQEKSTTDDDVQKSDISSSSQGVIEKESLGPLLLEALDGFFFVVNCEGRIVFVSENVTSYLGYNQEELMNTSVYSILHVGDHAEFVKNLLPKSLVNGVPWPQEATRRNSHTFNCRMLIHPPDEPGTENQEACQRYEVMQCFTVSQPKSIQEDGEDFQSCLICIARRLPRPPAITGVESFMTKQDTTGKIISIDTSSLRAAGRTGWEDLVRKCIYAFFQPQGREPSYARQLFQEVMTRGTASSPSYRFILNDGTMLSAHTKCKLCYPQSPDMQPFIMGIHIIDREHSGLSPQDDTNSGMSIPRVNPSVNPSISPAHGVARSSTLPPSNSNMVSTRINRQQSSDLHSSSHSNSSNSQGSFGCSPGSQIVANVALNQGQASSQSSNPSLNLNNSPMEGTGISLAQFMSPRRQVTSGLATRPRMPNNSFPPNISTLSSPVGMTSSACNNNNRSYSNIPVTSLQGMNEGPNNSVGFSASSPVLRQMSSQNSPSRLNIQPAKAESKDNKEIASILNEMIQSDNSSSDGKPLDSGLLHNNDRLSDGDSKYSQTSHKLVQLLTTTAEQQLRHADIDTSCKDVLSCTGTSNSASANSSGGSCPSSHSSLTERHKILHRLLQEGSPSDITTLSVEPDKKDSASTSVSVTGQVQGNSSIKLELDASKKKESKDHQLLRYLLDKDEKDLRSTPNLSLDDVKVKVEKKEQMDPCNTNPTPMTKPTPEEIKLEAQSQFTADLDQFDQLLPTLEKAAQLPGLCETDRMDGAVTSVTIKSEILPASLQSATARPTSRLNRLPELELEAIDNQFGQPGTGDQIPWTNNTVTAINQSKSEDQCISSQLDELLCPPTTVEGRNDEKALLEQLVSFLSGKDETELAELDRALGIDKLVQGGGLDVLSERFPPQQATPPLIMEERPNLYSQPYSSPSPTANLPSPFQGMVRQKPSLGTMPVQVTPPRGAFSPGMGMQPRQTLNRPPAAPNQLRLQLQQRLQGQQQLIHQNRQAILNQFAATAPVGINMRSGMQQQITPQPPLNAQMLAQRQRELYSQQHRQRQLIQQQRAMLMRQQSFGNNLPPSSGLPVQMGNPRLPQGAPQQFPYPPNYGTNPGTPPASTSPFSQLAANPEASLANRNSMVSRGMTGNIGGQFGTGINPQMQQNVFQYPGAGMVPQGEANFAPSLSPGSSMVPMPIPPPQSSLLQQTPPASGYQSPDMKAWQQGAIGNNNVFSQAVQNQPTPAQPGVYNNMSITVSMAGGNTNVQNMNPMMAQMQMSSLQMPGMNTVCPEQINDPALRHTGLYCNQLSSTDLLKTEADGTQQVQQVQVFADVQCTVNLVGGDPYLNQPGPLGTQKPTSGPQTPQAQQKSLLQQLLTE
method-notes: TR-FRET dose response biochemical High Throughput Screening assay for agonists of the steroid receptor coactivator 1 (SRC-1) recruitment by the peroxisome proliferator-activated receptor gamma (PPAR gamma): non-selective agonists. [Related pubchem assays (depositor defined):AID1300, AID1808, AID504735, AID631]
Format: protein assay
Calls of active or inactive are those of the source.

// known answers, use as guide
c1ccc(-c2nnsc2-c2nc3ccccc3[nH]2)cc1; 10.8 µM (inactive)
CCOC(=O)C1CCCN(CC(=O)Nc2c(C(=O)OC)[nH]c3ccc(Br)cc23)C1 (centres undefined); > 79.4 µM (inactive)
O=C(Nc1nc2c(s1)CN(Cc1ccccc1)CC2)c1cccc(S(=O)(=O)N2CCc3ccccc32)c1; 10.8 µM (inactive)

Please examine the following record next.
Value of measured EC50 for the entry CC(Sc1nnc(-c2ccc(Cl)cc2Cl)n1Cc1ccccc1)C(=O)Nc1nccs1 (centres undefined) : 10.6 µM (inactive)

====

Listed below: EC50 values for each entry.
target-or-system: Protein RecA (Mycobacterium tuberculosis)
method-notes: Fluorescence Cell-Free Homogeneous Dose Retest to Identify Inhibitors of RecA-Intein Splicing Activity. [Related pubchem assays (depositor defined):AID2097, AID2223, AID489010, AID492950]
Assay type: functional
Active and inactive are the calls of the source.

Note to self: EC50 recorded for O=S(=O)(c1ccc(Cl)cc1)c1snnc1-c1ccccc1 was 9.19 µM (active)

Form field EC50, entry COc1ccc(-c2nnc(Sc3nc4ccccc4o3)c3ccccc23)cc1 : 0.703 µM (active)
